Target Desc: the molecule itself
Assay Explanation: MST

# Protein, Kd (nM)
data = [
    ("wild-type HdeA (natural protein, Escherichia coli, UniProt P0AES9 22-110, looked up) ADAQKAADNKKPVNSWTCEDFLAVDESFQPTAVGFAEALNNKDKPEDAVLDVQGIATVTPAIVQACTQDKQANFKDKVKGEWDKIKKDM", 1200),
]
